# study_target: Platelet-derived growth factor receptor (Mus musculus)
# assay_name: The cells were stimulated with PDGF (100 ng/mL) for 10 min at room temperature. Then the cell lysates were analyzed by SDS-PAGE and immunoblotting with anti-phosphotyrosine antibodies. Quantification of IC50 values was based on the intensity of the signal for autophosphorylated PDGF receptor. Titration was done using four to ei
recorded_metric: IC50 (µM)
Value expressed in µM; do not type the unit.

Ask: Entry "O=C(c1cc2ccccc2[nH]1)c1cc2cc(OC(=O)C3CCC3)ccc2[nH]1" has what IC50?
Result: 5.7
